System under test: T1, human Ror2 (human, UniProt Q01974 34-403, limits assumed)
T1 construct: also called hROR2; receptor tyrosine kinase-like orphan receptor 2
T1 sequence (Q01974 34-403 limits assumed): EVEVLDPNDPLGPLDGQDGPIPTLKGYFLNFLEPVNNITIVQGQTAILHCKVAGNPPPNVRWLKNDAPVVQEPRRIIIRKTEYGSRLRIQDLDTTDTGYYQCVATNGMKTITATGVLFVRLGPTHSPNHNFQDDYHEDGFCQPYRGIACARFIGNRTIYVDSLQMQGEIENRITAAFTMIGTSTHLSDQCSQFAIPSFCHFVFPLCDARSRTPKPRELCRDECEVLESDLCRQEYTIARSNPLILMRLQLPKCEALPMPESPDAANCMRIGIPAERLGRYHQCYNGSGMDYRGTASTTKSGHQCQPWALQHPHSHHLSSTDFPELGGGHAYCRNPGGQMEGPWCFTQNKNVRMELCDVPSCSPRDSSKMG
Test method notes: ELISA, human Ror2; ratio of signal at pH 6.0 to pH 7.4
Parameter: ratio, pH 6.0/7.4. Scope: all listed entries.
Answer field: number only, no words.

Binder	Measured attribute	Reported value
LC-Y031C (antibody, V domains shown) VH: EVQLQQSGPELVKPGASVKISCKTSGYTFTEYTMHWMKQSHRKSLEWIGGINTNNGGTGYNQKFKGKATLTVDKSSSTAYMELRSLTSEDSAVYFCARGSLYSYGNSYFDYWGQGTLVTVSS VL: QIVLTQSPAIMSASPGEKVTITCSATSSVSCMHWFQQKPGTSPKLWIYGTSNLASGVPARFSGSGSGTSYSLTISRMEAEDAATYYCQQRSSYPFTFGQGTKVEIK	ratio, pH 6.0/7.4	1.92

input: Dear colleague, please send me the reported ratio, pH 6.0/7.4 for LC-S092V (antibody, V domains shown) VH: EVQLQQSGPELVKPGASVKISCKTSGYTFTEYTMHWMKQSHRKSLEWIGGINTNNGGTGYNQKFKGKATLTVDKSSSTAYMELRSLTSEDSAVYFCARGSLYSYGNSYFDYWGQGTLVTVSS VL: QIVLTQSPAIMSASPGEKVTITCSATSSVSYMHWFQQKPGTSPKLWIYGTSNLASGVPARFSGSGSGTSYSLTISRMEAEDAATYYCQQRSVYPFTFGQGTKVEIK when you can.
output: 1.04

input: Dear colleague, please send me the reported ratio, pH 6.0/7.4 for LC-S030D (antibody, V domains shown) VH: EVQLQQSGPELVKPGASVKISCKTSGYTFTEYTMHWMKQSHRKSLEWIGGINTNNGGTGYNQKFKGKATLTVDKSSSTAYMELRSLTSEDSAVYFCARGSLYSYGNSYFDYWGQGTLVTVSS VL: QIVLTQSPAIMSASPGEKVTITCSATSSVDYMHWFQQKPGTSPKLWIYGTSNLASGVPARFSGSGSGTSYSLTISRMEAEDAATYYCQQRSSYPFTFGQGTKVEIK when you can.
output: 2.91

Values were extracted from patent US20200002414A1.
